- tested.system: FAD-linked sulfhydryl oxidase ALR (Homo sapiens, UniProt P55789)
- Sequence (P55789 whole entry): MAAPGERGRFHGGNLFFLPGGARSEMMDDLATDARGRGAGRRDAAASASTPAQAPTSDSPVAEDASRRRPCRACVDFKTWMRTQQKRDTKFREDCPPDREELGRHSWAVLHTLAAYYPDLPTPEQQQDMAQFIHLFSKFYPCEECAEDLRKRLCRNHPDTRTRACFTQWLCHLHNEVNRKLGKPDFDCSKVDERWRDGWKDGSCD
- protocol.details: inhibitors of human ALR sulfhydryl oxidase, dose response, biochemical, H2O2 detection, luminescence, cherry-pick (AID 493248)
Activity calls are given as the source filed them.
Entry note: the call must match one of t = active, f = inactive

Example cases with answers are listed next.
>  <molecule>
N=C(NOC(=O)c1ccco1)c1ccc(Cl)cc1

>  <label>
t

$$$$
>  <molecule>
C[n+]1c2n(c3ccccc31)N=C(c1ccc(Cl)cc1)CS2

>  <label>
t

$$$$
>  <molecule>
CCN1C(=O)CC(N2CCC(Nc3ccc(OC)cc3)CC2)C1=O (configuration not stated)

>  <label>
t

$$$$
>  <molecule>
COc1cccc(/C=C/c2nc(O)nc(O)c2[N+](=O)[O-])c1O

>  <label>
t

$$$$
>  <molecule>
O=[N+]([O-])c1ccc(-c2c[nH]c(S)n2)cc1

>  <label>
t

$$$$

[ask] Recorded call for Cc1ccc(NC2CCCN(C(=O)Cc3nonc3C)C2)cc1C (configuration not stated) ?
[reply] t

[ask] Could you do the same for Cc1ccc2nc(-c3ccc(O)c(O)c3)cn2c1 , please?
[reply] t

[ask] Entry NNC(=O)c1cccc(COc2ccccc2Br)c1 please
[reply] f

[ask] // query: COc1ccc(C(=O)CCN2CCc3cc(OC)c(OC)cc3C2)cc1
[reply] t

[ask] Query CC(C)c1ccc(/C=C2\SC(=O)N(CC(=O)NCCCn3ccnc3)C2=O)cc1 next
[reply] t

[ask] Same read-out for Cc1cccc(CSC2=NCCN2C(=O)c2ccco2)c1 ?
[reply] t

[ask] Now consider CCN(CCCNC(=O)CNC(=O)Cn1cnc2ccccc2c1=O)c1ccccc1 and answer again.
[reply] t

====

- tested.system: UniProt:P9WMR3
- Sequence (P9WMR3 1-399, added parts left off): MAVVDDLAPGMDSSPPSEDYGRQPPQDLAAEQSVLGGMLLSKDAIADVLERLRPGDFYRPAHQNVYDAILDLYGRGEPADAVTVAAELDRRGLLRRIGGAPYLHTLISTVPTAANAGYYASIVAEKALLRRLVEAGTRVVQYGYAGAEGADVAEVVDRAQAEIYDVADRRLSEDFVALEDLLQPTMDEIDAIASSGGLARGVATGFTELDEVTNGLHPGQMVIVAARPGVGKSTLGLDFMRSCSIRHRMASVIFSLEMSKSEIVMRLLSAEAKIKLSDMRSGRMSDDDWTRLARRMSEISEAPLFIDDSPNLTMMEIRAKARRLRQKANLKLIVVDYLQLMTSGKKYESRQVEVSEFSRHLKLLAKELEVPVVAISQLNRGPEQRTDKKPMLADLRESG
- protocol.details: DnaB intein splicing inhibitors, dose response, biochemical, cell-free fluorescence (AID 449749)
- Assay type: functional
Activity calls are given as the source filed them.
The reply should name one outcome from active, inactive

Look over these answered cases.
>  <compound.smiles>
Cc1ccc(NC(=O)CCl)cc1S(=O)(=O)N1CCCCCC1

>  <label>
active

$$$$
>  <compound.smiles>
O=S(=O)(Nc1ccc(O)c2ccccc12)c1ccc(OC(F)(F)F)cc1

>  <label>
active

$$$$
>  <compound.smiles>
CC(=O)c1cc(O)c2ccccc2c1O

>  <label>
inactive

$$$$
>  <compound.smiles>
C(=N\Nc1nncc2ccccc12)/c1ccccn1

>  <label>
active

$$$$
>  <compound.smiles>
CN(C)/C=C/C(=O)c1ccc2noc(-c3ccc(F)cc3)c2c1

>  <label>
inactive

$$$$

Now look at this entry.
[ask] What classification did CN1C(=O)/C(=N\OC(=O)c2cccc3ccccc23)c2ccccc21 end up with in this test?
[reply] active

====

- tested.system: Ubiquitin-conjugating enzyme E2 N (Homo sapiens, UniProt P61088);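 further: Dose-response confirmation in a TR-FRET assay detecting UBC13-driven polyubiquitin chain formation, inhibition measured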
- Sequence (P61088 whole entry): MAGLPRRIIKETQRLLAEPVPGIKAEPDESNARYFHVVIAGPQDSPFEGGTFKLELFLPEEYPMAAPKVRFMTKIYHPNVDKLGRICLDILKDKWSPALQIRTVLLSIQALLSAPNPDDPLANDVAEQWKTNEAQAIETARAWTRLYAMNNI
- Format: functional
Active and inactive are the calls of the source.
I would appreciate it if you answered using one of these outcomes: y = active, n = inactive

Some solved cases for reference:
>  <compound>
COc1ccc2nc(C)cc(N/N=C/c3cccc(OC)c3O)c2c1

>  <label>
n

$$$$
>  <compound>
COC(=O)c1c(NC(=O)c2nc3ccccc3s2)sc2c1CCN(C(C)=O)C2

>  <label>
n

$$$$

[ask] # lookup: test call for CC(C)[C@@H]1CN=C(N)N1C[C@@H]1CCCN1C[C@H](C)N1C[C@@H](Cc2ccccc2)N(CCc2ccc(Cl)c(Cl)c2)C1=N
[reply] n

[ask] Also need COc1cc(CNCCc2c[nH]c3ccccc23)ccc1OCc1ccccc1F , thanks.
[reply] n

[ask] Query CCCCCCCCCCOC(=O)C[n+]1c(COc2ccccc2OC)n(C)c2ccccc21 next
[reply] y

[ask] Now the compound CC1CCCCN1CCNC(=O)c1ccc2c(=O)n(Cc3ccc(Cl)cc3)c(=S)[nH]c2c1 (stereo not drawn)
[reply] n

[ask] # iterate: COc1ccc(C(CNC(=O)c2cc3c(s2)CCC(C)C3)N2CCCC2)cc1 (stereo not drawn)
[reply] n

[ask] Next: CCC(C)N(CCNC(=O)c1ccc2c(c1)NC(=O)c1ccccc1S2)C1CCCCC1 (stereo not drawn)
[reply] n
